Every entry's value here was drawn from patent US20210054097A1.

systemTested: T1, FX activation peptide 12-mer TENPFDLLDFNQ (human)
T1 peptide: TENPFDLLDFNQ-biotin
assaySummary: peptide ELISA
Ends that are not written are not given here.
quantityName: ELISA signal relative to background
Give bare numbers.

Give one value of ELISA signal relative to background per listed binder.
1. Nb 730C03 (VHH, monovalent Nanobody; also called Nb 730003; not shown: C-terminal FLAG3 and HIS6 tag) VHH: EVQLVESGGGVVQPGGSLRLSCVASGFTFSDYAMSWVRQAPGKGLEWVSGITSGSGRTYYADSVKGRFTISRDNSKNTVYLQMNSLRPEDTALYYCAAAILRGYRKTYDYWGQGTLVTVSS
2. Nb 701B09 (VHH, monovalent Nanobody; also called Nb 701609; not shown: C-terminal FLAG3 and HIS6 tag) VHH: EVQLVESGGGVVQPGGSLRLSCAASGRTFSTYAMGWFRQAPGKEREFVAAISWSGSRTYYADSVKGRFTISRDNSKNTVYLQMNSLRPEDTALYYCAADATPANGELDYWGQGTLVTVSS
3. Nb 729A04 (VHH, monovalent Nanobody; not shown: C-terminal FLAG3 and HIS6 tag) VHH: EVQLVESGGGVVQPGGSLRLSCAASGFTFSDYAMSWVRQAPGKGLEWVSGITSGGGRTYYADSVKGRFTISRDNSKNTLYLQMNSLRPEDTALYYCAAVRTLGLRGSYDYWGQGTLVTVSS

Completion:
1: 2.1; 2: 4.38; 3: 9.12
